Peptide text beside a SMILES is read from it.
Lab note - cut at 1 for logP: Y if strictly below, N if not.

Exam item: Is logP strictly under 1 for the entry CCOC(=O)C(F)(F)C(F)(F)F ?
Marked response: N

Exam item: Is logP strictly under 1 for the entry CC(O)CO (stereo not drawn) ?
Marked response: Y

Exam item: Is logP strictly under 1 for the entry CN(C)N=Nc1ccccc1 ?
Marked response: N

Exam item: Is logP strictly under 1 for the entry NNC(=O)c1ccc([N+](=O)[O-])cc1 ?
Marked response: Y

Exam item: Is logP strictly under 1 for the entry Clc1cc(Cl)nc(-c2ccccc2)n1 ?
Marked response: N

Exam item: Is logP strictly under 1 for the entry Cn1cccc1C=NNC(=S)Nc1ccccc1 ?
Marked response: N

Exam item: Is logP strictly under 1 for the entry CC(C)=CC1C(C(=O)OCN2C(=O)C3=C(CCCC3)C2=O)C1(C)C (stereo not drawn) ?
Marked response: N

Exam item: Is logP strictly under 1 for the entry c1ccc2[nH]nnc2c1 ?
Marked response: N

Exam item: Is logP strictly under 1 for the entry NC1=CC(=O)c2ccccc2C1=O ?
Marked response: N

Exam item: Is logP strictly under 1 for the entry ClCc1cccc(CCl)c1 ?
Marked response: N

Exam item: Is logP strictly under 1 for the entry ICCI ?
Marked response: N

Exam item: Is logP strictly under 1 for the entry CN1CCN(C)CC1 ?
Marked response: Y

Exam item: Is logP strictly under 1 for the entry CCOC(=O)C(Cc1ccccc1)C(=O)OCC ?
Marked response: N

Exam item: Is logP strictly under 1 for the entry COc1ccc(C(=O)O)cc1 ?
Marked response: N

Exam item: Is logP strictly under 1 for the entry CN(C)C(=O)N(c1ccccc1)c1ccccc1 ?
Marked response: N

Exam item: Is logP strictly under 1 for the entry CCOC(=O)C(=Cc1ccccc1C)C(=O)OCC ?
Marked response: N

Exam item: Is logP strictly under 1 for the entry COc1ccc(N)cc1 ?
Marked response: Y

Exam item: Is logP strictly under 1 for the entry C=CCNCCC ?
Marked response: N

Exam item: Is logP strictly under 1 for the entry O=C(O)CN1CCN(C(=O)Cn2c(=O)sc3ccc(Cl)cc32)CC1 ?
Marked response: Y

Exam item: Is logP strictly under 1 for the entry CCCCNc1nc(NCC)nc(SC(F)F)n1 ?
Marked response: N

Exam item: Is logP strictly under 1 for the entry C=CC=O ?
Marked response: Y

Exam item: Is logP strictly under 1 for the entry Cc1ccc(O)c(-n2nc3ccccc3n2)c1 ?
Marked response: N

Exam item: Is logP strictly under 1 for the entry C=C(C)C ?
Marked response: N

Exam item: Is logP strictly under 1 for the entry CN(C)c1cccc2ccccc12 ?
Marked response: N

Exam item: Is logP strictly under 1 for the entry CC(C)NCc1cccnc1 ?
Marked response: Y

Exam item: Is logP strictly under 1 for the entry Cc1ccnc2c(O)cccc12 ?
Marked response: N

Exam item: Is logP strictly under 1 for the entry O=C(O)COc1ccccc1Br ?
Marked response: N

Exam item: Is logP strictly under 1 for the entry CCOc1cccc(O)c1 ?
Marked response: N

Exam item: Is logP strictly under 1 for the entry O=C(O)COc1ccc(Cl)c([N+](=O)[O-])c1 ?
Marked response: N

Exam item: Is logP strictly under 1 for the entry Nc1nnc(Cc2ccccc2)o1 ?
Marked response: Y

Exam item: Is logP strictly under 1 for the entry CCCCc1ccc(C(=O)O)cc1 ?
Marked response: N

Exam item: Is logP strictly under 1 for the entry COCc1ccc(C(=O)O)cc1 ?
Marked response: N

Exam item: Is logP strictly under 1 for the entry COC(=O)C(C)(C)C ?
Marked response: N

Exam item: Is logP strictly under 1 for the entry O=[N+]([O-])c1nccn1C1OC(CI)C(O)C1O (stereo not drawn) ?
Marked response: Y

Exam item: Is logP strictly under 1 for the entry Clc1ccc(-c2ccc(Cl)cc2Cl)c(Cl)c1 ?
Marked response: N

Exam item: Is logP strictly under 1 for the entry NS(=O)(=O)c1ccc2c(c1)S(=O)(=O)NCN2 ?
Marked response: Y

Exam item: Is logP strictly under 1 for the entry CCC12CC3CC(CC(N)(C3)C1)C2 ?
Marked response: N

Exam item: Is logP strictly under 1 for the entry CSc1ccc(O)cc1 ?
Marked response: N

Exam item: Is logP strictly under 1 for the entry CCc1ccccc1S(I)=C(N(C)C)N(C)C (stereo not drawn) ?
Marked response: Y

Exam item: Is logP strictly under 1 for the entry Cc1ccc(C(C)C)cc1 ?
Marked response: N

Exam item: Is logP strictly under 1 for the entry CCC(C)NP(=O)(OC)Oc1cc(Cl)c(Cl)cc1Cl (stereo not drawn) ?
Marked response: N

Exam item: Is logP strictly under 1 for the entry NC(C(=O)O)c1cccs1 (stereo not drawn) ?
Marked response: Y

Exam item: Is logP strictly under 1 for the entry Clc1cc(Cl)c(Cl)c(Cl)c1 ?
Marked response: N

Exam item: Is logP strictly under 1 for the entry CC(C)(C)N(CC(O)COc1ccccc1)CC(O)COc1ccccc1 (stereo not drawn) ?
Marked response: N

Exam item: Is logP strictly under 1 for the entry O=C(O)Cc1ccc([N+](=O)[O-])cc1 ?
Marked response: N

Exam item: Is logP strictly under 1 for the entry CCCCCCCCl ?
Marked response: N

Exam item: Is logP strictly under 1 for the entry NC1C2CCC1c1ccccc12 (stereo not drawn) ?
Marked response: N

Exam item: Is logP strictly under 1 for the entry Oc1cccnc1 ?
Marked response: Y

Exam item: Is logP strictly under 1 for the entry Cc1ccccc1N ?
Marked response: N

Exam item: Is logP strictly under 1 for the entry c1ccc(Cn2ccnn2)cc1 ?
Marked response: N

Exam item: Is logP strictly under 1 for the entry COC(=O)CCC(=O)OCC(=O)C1(O)CCC2C3CCC4=CC(=O)CCC4(C)C3C(O)CC21C (stereo not drawn) ?
Marked response: N

Exam item: Is logP strictly under 1 for the entry CC1=C(C)C(=O)C(C)=C(C)C1=O ?
Marked response: N

Exam item: Is logP strictly under 1 for the entry COC(OC)(OC)c1ccccc1 ?
Marked response: N

Exam item: Is logP strictly under 1 for the entry FC(F)(F)c1ccc(C(F)(F)F)cc1 ?
Marked response: N

Exam item: Is logP strictly under 1 for the entry C=CCOc1ccc(CC(=O)O)cc1Cl ?
Marked response: N

Exam item: Is logP strictly under 1 for the entry O=C(O)COc1ccccc1 ?
Marked response: N

Exam item: Is logP strictly under 1 for the entry CC(=O)c1csc2ccccc12 ?
Marked response: N

Exam item: Is logP strictly under 1 for the entry CC(=O)NCC(=O)N[C@@H](C)C(=O)N[C@H](C(N)=O)C(C)C (Ac-Gly-Ala-Val-NH2) ?
Marked response: Y

Exam item: Is logP strictly under 1 for the entry CCCCCN ?
Marked response: N

Exam item: Is logP strictly under 1 for the entry CCOC(=O)c1ccc([N+](=O)[O-])cc1 ?
Marked response: N

Exam item: Is logP strictly under 1 for the entry CCC(C(N)=O)(C(N)=O)c1ccccc1 ?
Marked response: Y

Exam item: Is logP strictly under 1 for the entry CCc1cccc2cccnc12 ?
Marked response: N

###

parameter_measured: logP
Please give the numeric answer without any surrounding text.

The measured logP associated with FN(F)C(c1ccccc1)(c1ccccc1)c1ccccc1 reads 3.73

The measured logP associated with CCCCCC(=O)NN reads 0.48

The measured logP associated with Nc1ccc(C(=O)Oc2cccc(Cl)c2)c(O)c1 reads 3.9

The measured logP associated with Nc1ccccc1C(=O)O reads 1.21

The measured logP associated with CCc1cc(OP(=S)(OC)OC)ccc1[N+](=O)[O-] reads 3.74

The measured logP associated with Nc1ccc(S)cc1 reads 1.31

The measured logP associated with OCCCCc1cccnc1 reads 0.92

The measured logP associated with CC(C)c1ccc(C(N)=O)cc1 reads 2.14

###

Lab note - cut at 0.8 for logP: 1 (yes) if strictly below, 0 (no) if not.

Exam item: Is logP strictly under 0.8 for the entry Cc1cccc2c(C)cccc12 ?
Marked response: 0 (no)

Exam item: Is logP strictly under 0.8 for the entry O=C(NC(CO)C(O)c1ccc(Br)cc1)C(Cl)Cl (configuration not stated) ?
Marked response: 0 (no)

Exam item: Is logP strictly under 0.8 for the entry COc1ccccc1NCCO ?
Marked response: 0 (no)

Exam item: Is logP strictly under 0.8 for the entry CCCCOC(=O)c1ccc(C(=O)OCCCC)cc1 ?
Marked response: 0 (no)

Exam item: Is logP strictly under 0.8 for the entry CCOC(=O)CC ?
Marked response: 0 (no)

Exam item: Is logP strictly under 0.8 for the entry CNC(=O)Oc1cc(Cl)ccc1Cl ?
Marked response: 0 (no)

Exam item: Is logP strictly under 0.8 for the entry CCCN(N=O)C(N)=O ?
Marked response: 1 (yes)

Exam item: Is logP strictly under 0.8 for the entry COC(=O)c1cc(O)c(O)c(O)c1 ?
Marked response: 0 (no)

Exam item: Is logP strictly under 0.8 for the entry C[C@]12CCC(=O)C=C1CC[C@@H]1[C@@H]2[C@@H](O)C[C@@]2(C)[C@H]1CC[C@]2(O)C(=O)CO ?
Marked response: 0 (no)

Exam item: Is logP strictly under 0.8 for the entry C/C=N/O ?
Marked response: 1 (yes)

Exam item: Is logP strictly under 0.8 for the entry O=S(=O)(CF)Nc1ccc(Cl)cc1 ?
Marked response: 0 (no)

Exam item: Is logP strictly under 0.8 for the entry O=[N+]([O-])c1ccc(Cl)cc1 ?
Marked response: 0 (no)

Exam item: Is logP strictly under 0.8 for the entry O=[N+]([O-])c1ccc(-c2ccccc2)cc1 ?
Marked response: 0 (no)

Exam item: Is logP strictly under 0.8 for the entry CNC(=O)Oc1ccccc1[N+](=O)[O-] ?
Marked response: 0 (no)

Exam item: Is logP strictly under 0.8 for the entry CC(C)S[C@@H]1O[C@H](CO)[C@H](O)[C@H](O)[C@H]1O ?
Marked response: 1 (yes)

Exam item: Is logP strictly under 0.8 for the entry CCOC(=O)C(=Cc1ccc([N+](=O)[O-])cc1)C(=O)OCC ?
Marked response: 0 (no)

Exam item: Is logP strictly under 0.8 for the entry CCNC(=O)Nc1ccccc1 ?
Marked response: 0 (no)

Exam item: Is logP strictly under 0.8 for the entry CCN(CC)CCN ?
Marked response: 1 (yes)

Exam item: Is logP strictly under 0.8 for the entry c1cnccn1 ?
Marked response: 1 (yes)

Exam item: Is logP strictly under 0.8 for the entry NC(CO)C(=O)O (configuration not stated) ?
Marked response: 1 (yes)

Exam item: Is logP strictly under 0.8 for the entry CCCC=O ?
Marked response: 0 (no)

Exam item: Is logP strictly under 0.8 for the entry CCOc1c(NS(=O)(=O)c2ccc(N)cc2)ncnc1OC ?
Marked response: 0 (no)

Exam item: Is logP strictly under 0.8 for the entry CCCOc1ccc(O)cc1 ?
Marked response: 0 (no)

Exam item: Is logP strictly under 0.8 for the entry C#CCO ?
Marked response: 1 (yes)

Exam item: Is logP strictly under 0.8 for the entry COc1cccc(OC(=O)N(C)C)c1 ?
Marked response: 0 (no)

Exam item: Is logP strictly under 0.8 for the entry CCOS(=O)(=O)OCC ?
Marked response: 0 (no)

Exam item: Is logP strictly under 0.8 for the entry FC(F)Cl ?
Marked response: 0 (no)

Exam item: Is logP strictly under 0.8 for the entry CC(=O)Nc1ccc(S(I)=C(N(C)C)N(C)C)cc1 (configuration not stated) ?
Marked response: 1 (yes)

Exam item: Is logP strictly under 0.8 for the entry NC(=O)c1cccc(O)c1 ?
Marked response: 1 (yes)

Exam item: Is logP strictly under 0.8 for the entry CN ?
Marked response: 1 (yes)

Exam item: Is logP strictly under 0.8 for the entry CCOCCOC(=O)C(C#N)=C(CC)Nc1ccc(N)cc1 ?
Marked response: 0 (no)
